Consider the following binders and their measured Kd readings.
target: T1, Human Activin A Fc (human, UniProt P03970 309-424 (pig entry))
T1 construct: also called human Activin A-Fc fusion; human Activin A-Fc antigen; not shown: Fc part
T1 sequence: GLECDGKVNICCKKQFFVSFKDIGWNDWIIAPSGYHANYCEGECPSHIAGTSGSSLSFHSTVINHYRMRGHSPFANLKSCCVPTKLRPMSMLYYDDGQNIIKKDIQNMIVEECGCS
measurement-protocol: Octet BLI, Fab, monovalent
outcome-measure: Kd (nM)

| binder | measurement-unit | test-value |
| --- | --- | --- |
| Fab of anti-Activin A antibody Clone F (Fab, V domains shown, Fab format; only VH and VL are tied to the clone; also called Clone F Fab) VH: QVQLVQSGAEVKKPGASVKVSCKASGYTFTGYHIHWVRQVPGQGLEWMGVISAYSGDTNYAQKLQGRVTMTTDTSTSTAYMELRSLRSDDTAVYYCARARDIAALGLGAFDYWGQGTLVTVSS VL: EIVLTQSPATLSVSPGERATLSCRASQSVSSNLAWYQQKPGQAPRLLIYGASDRATGIPARFSGSGSGTEFTLTISSLQSEDFAVYYCIQYSNYPRTFGGGTKVEIK | nM | 0.419 |
| Fab of anti-Activin A antibody Clone H (Fab, V domains shown, Fab format; only VH and VL are tied to the clone; also called Clone H Fab) VH: QVQLVQSGAEVKKPGASVKVSCKASGYTFTGYHIHWVRQAPGQGLEWMGHISAYSGTTNYAQKLQGRVTMTTDTSTSTAYMELRSLRSDDTAVYYCARARDIAAAGLGAFDYWGQGTLVTVSS VL: EIVLTQSPGTLSLSPGERATLSCRASQSVRSSYLAWYQQKPGQAPRLLIYGASSRATGIPDRFSGSGSGTDFTLTISRLEPEDFAVYYCQQYSNYPRTFGGGTKVEIK | nM | 1.86 |
